# experiment-description: Partition coefficient (logD7.4)
# Type: physicochemical
# condition-parameters: octanol/water, pH 7.4
experimental-endpoint: logD

Some solved entries appear below for comparison.
CC(C)NCC(O)COc1cccc2c(O)cccc12 (configuration not stated); 0.56
CC(C)NCC(O)COc1cccc2cccc(O)c12 (configuration not stated); 1.4

1 = CC(C)NCC(O)COc1cccc2ccc(O)cc12 (configuration not stated)
2 = CC(C)NCC(O)COc1c(O)ccc2ccccc12 (configuration not stated)
// pick larger logD from pair: 1 vs 2 Give the label of your selection.
2

----------
# Species: Canis familiaris
# experiment-description: Vasodilator potency relative to propranolol.
# Type: functional, Canis lupus familiaris
Where a name gives a salt, the structure may show the parent alone.
experimental-endpoint: Relative potency
Please give only the number in your answer, with no unit.

In the examples that follow, each entry is paired with its recorded Relative potency.
CC(C)NCC(O)COc1cccc2cccc(O)c12 (configuration not stated); 0.94
CC(C)NCC(O)COc1ccc(O)c2ccccc12 (configuration not stated) [4-HYDROXYPROPRANOLOL SULFATE]; 0.13
CC(C)NCC(O)COc1cccc2ccc(O)cc12 (configuration not stated); 0.2
CC(C)NCC(O)COc1cccc2cc(O)ccc12 (configuration not stated); 0.22
CC(C)NCC(O)COc1cccc2c(O)cccc12 (configuration not stated); 0.28
CC(C)NCC(O)COc1c(O)ccc2ccccc12 (configuration not stated); 1.07

Let us move to another entry and its Relative potency.
Suppose we examine the compound CC(C)NCC(O)COc1cc(O)cc2ccccc12 (configuration not stated) ; what Relative potency value has been reported?
0.06

----------
# experiment-description: Partition coefficient (logD7.4)
# Assay type: physicochemical
# condition-parameters: octanol/water, pH 7.4
Counter-ions that a name gives are not always drawn.
experimental-endpoint: logD

CC(C)NCC(O)COc1ccc(O)c2ccccc12 (stereo not drawn) [4-HYDROXYPROPRANOLOL SULFATE]; 0.53
CC(C)NCC(O)COc1cccc2cc(O)ccc12 (stereo not drawn); 0.46
CC(C)NCC(O)COc1cc(O)cc2ccccc12 (stereo not drawn); 0.57
